Catalogue of EC50 readings, one per entry.
# Organism: Canis familiaris
# test: Effective dose required to induce constriction of dog saphenous vein segments
# Format: functional
# testConditions: Canis lupus familiaris, read-out: ED50 (the source's name)
Please reply with the bare figure in µM and do not write the unit itself.

Look over these answered cases.
• c1ccc2c(c1)OCC(CNCCCNC1=NCCCN1)O2 (stereo not given) = 0.0665
• c1ccc2c(c1)CCC(CNCCCCNC1=NCCCN1)O2 (stereo not given) = 0.011
• c1ccc2c(c1)CCC(CNCCNC1=NCCCN1)O2 (stereo not given) = 0.0494

Now let's try a different one.
Query: # query: EC50 of entry COc1cccc2c1OC(CNCCCNC1=NCCCN1)CC2 (stereo not given)
Result: 0.00209

Where do these numbers come from? They come from ChEMBL document CHEMBL1128632.
